- MEASURED_TARGET: human norepinephrine transporter (Homo sapiens)
- Construct: host or cells: HEK-293
- METHOD: hNET receptor binding ([125I]-RTI-55 radioligand binding)
- COND: membranes of HEK-293 cells transfected with human norepinephrine transporter, IC50 converted to Ki by Cheng-Prusoff, read-out: hNET (Ki)
METRIC: pKi
pKi here is simply -log10 of the concentration when that concentration is written in mol/L.

MOLECULE	OBSERVED_RESULT
Fc1ccccc1OC(c1ccccn1)[C@@H]1CNCCO1 (single isomer, unassigned) [Example 120]	8.00
CCOc1ccccc1O[C@@H](c1cccc(OC)n1)[C@@H]1CNCCO1	7.55

Now consider a different molecule.
Per the record, CCOCc1ccccc1O[C@@H](c1ccccc1)[C@@H]1CNCCO1 has pKi of 7.55

###

- MEASURED_TARGET: human norepinephrine transporter (Homo sapiens, UniProt P23975)
- Construct: host or cells: HEK-293
- Sequence (P23975 whole entry): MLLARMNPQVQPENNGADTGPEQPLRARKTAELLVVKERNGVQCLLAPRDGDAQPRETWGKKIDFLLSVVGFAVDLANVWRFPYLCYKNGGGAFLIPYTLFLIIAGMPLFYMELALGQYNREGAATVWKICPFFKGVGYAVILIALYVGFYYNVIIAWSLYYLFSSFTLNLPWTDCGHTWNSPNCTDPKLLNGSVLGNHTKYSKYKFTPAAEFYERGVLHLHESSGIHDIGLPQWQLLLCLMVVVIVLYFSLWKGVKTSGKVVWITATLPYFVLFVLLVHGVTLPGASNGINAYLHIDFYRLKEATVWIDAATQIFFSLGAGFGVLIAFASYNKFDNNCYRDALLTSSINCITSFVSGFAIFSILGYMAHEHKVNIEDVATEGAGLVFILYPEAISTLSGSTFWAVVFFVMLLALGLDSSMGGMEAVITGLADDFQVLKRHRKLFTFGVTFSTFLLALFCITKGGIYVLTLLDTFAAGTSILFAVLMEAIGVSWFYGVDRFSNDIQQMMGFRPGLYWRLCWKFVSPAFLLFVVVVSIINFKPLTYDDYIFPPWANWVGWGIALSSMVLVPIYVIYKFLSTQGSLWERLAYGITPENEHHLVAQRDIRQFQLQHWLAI
- METHOD: hNET receptor binding ([125I]-RTI-55 radioligand binding)
- COND: membranes of HEK-293 cells transfected with human norepinephrine transporter, IC50 converted to Ki by Cheng-Prusoff, read-out: hNET (Ki)
METRIC: Ki (nM)
Your answer should be a plain number; it is taken to be in nM.

Consider the worked cases shown below.
MOLECULE	OBSERVED_RESULT
Fc1cccc(F)c1OC(c1cccc2c1OCC2)[C@@H]1CNCCO1 (some centres unmarked)	13
Fc1ccc(Oc2ncccc2OC[C@H]2CNCCO2)cc1	4110
CC(C)c1ccccc1O[C@@H](c1ccccn1)[C@@H]1CNCCO1	13
CCCc1ccccc1O[C@@H](c1ccccc1)[C@@H]1CNCCO1	9

Now consider a different molecule.
Per the record, Fc1cccc(Cl)c1O[C@@H](c1ccccc1)[C@@H]1CNCCO1 [Example 60] has Ki of 14

###

In what follows, each item is paired with its Ki for human seritonin transporter (Homo sapiens, UniProt P31645).
Your answer should be a plain number; it is taken to be in nM.

Considering Fc1ccc([C@H](Oc2ccccc2F)[C@H]2CNCCO2)cc1 [Example 34] , its Ki with human seritonin transporter (Homo sapiens, UniProt P31645) was recorded as 184

Considering Brc1ccccc1O[C@@H](c1ccccn1)[C@@H]1CNCCO1 [Example 155] , its Ki with human seritonin transporter (Homo sapiens, UniProt P31645) was recorded as 768

Considering Fc1cccc(F)c1O[C@@H](c1ccccc1)[C@@H]1CNCCO1 [Example 36] , its Ki with human seritonin transporter (Homo sapiens, UniProt P31645) was recorded as 471

Considering CSc1ccccc1O[C@@H](c1ccccc1)[C@@H]1CNCCO1 [Example 53] , its Ki with human seritonin transporter (Homo sapiens, UniProt P31645) was recorded as 259

###

- MEASURED_TARGET: human norepinephrine transporter (Homo sapiens, UniProt P23975)
- Construct: host or cells: HEK-293
- METHOD: hNET receptor binding ([125I]-RTI-55 radioligand binding)
- COND: hNET (Ki), membranes of HEK-293 cells transfected with human norepinephrine transporter, IC50 converted to Ki by Cheng-Prusoff
METRIC: pKi
pKi here is simply -log10 of the concentration when that concentration is written in mol/L.

Per the record, c1ccc([C@H](Oc2ccccc2N2CCNCC2)[C@@H]2CNCCO2)cc1 has pKi of 5.79

###

- MEASURED_TARGET: human norepinephrine transporter (Homo sapiens)
- Construct: host or cells: HEK-293
- METHOD: hNET receptor binding ([125I]-RTI-55 radioligand binding)
- COND: membranes of HEK-293 cells transfected with human norepinephrine transporter, IC50 converted to Ki by Cheng-Prusoff, read-out: hNET (Ki)
pKi: −log10 of the molar value.
Each entry gets criterion not met if its pKi stays under 8, and criterion met if its pKi is 8 or above.

These recorded examples may help you get a feel for the data.
COMPOUND	CAT
Fc1cccc(F)c1OC(C1=CCCC1)[C@@H]1CNCCO1 (mixture of isomers)	criterion not met
CN(C)c1ccccc1O[C@@H](c1ccccc1)[C@@H]1CNCCO1	criterion not met
c1ccc(COc2ccccc2O[C@@H](c2ccccc2)[C@@H]2CNCCO2)cc1	criterion met
CCOc1ncccc1O[C@@H](Cc1ccccc1)[C@@H]1CNCCO1	criterion not met

Challenge: Assess whether reported pKi for CCOc1ccccc1O[C@H](c1cccnc1)[C@@H]1CNCCO1 (single isomer, unassigned) sits at 8 or higher.
Response given: criterion not met

Challenge: Assess whether reported pKi for FCCCOc1ccccc1O[C@@H](c1ccccc1)[C@@H]1CNCCO1 sits at 8 or higher.
Response given: criterion met

Challenge: Assess whether reported pKi for CCOc1ccccc1O[C@@H](CC(C)C)[C@@H]1CNCCO1 sits at 8 or higher.
Response given: criterion not met

###

- MEASURED_TARGET: human norepinephrine transporter (Homo sapiens)
- Construct: host or cells: HEK-293
- METHOD: hNET receptor binding ([125I]-RTI-55 radioligand binding)
- COND: membranes of HEK-293 cells transfected with human norepinephrine transporter, IC50 converted to Ki by Cheng-Prusoff, read-out: hNET (Ki)
METRIC: log10 of Ki (log10 of the value in nM)
Please be aware that the numbers have been log10-transformed from Ki in nM.

Consider the worked cases shown below.
MOLECULE	log10 of Ki
CCCOc1cccc(F)c1O[C@@H](c1ccccc1)[C@@H]1CNCCO1	1.30
Clc1ccccc1-c1ccccc1OCC1CNCCO1 (centres unmarked)	2.77
FC(F)(F)c1ccccc1O[C@@H](c1ccccn1)[C@@H]1CNCCO1	3.16
Fc1cccc(Br)c1O[C@@H](c1ccccn1)[C@@H]1CNCCO1	0.90

Now consider a different molecule.
Per the record, CC(C)c1ncccc1O[C@@H](c1ccccc1)[C@@H]1CNCCO1 has log10 of Ki of 1.26

###

- MEASURED_TARGET: human norepinephrine transporter (Homo sapiens)
- Construct: host or cells: HEK-293
- METHOD: hNET receptor binding ([125I]-RTI-55 radioligand binding)
- COND: membranes of HEK-293 cells transfected with human norepinephrine transporter, IC50 converted to Ki by Cheng-Prusoff, read-out: hNET (Ki)
METRIC: pKi
pKi here is simply -log10 of the concentration when that concentration is written in mol/L.

COMPOUND	METRIC	OBSERVED_RESULT
COc1cccc([C@H](Oc2ccccc2OC(F)(F)F)[C@@H]2CNCCO2)n1	pKi	7.80

Per the record, CCOc1ccccc1O[C@H](c1ccccn1)[C@@H]1CNCCO1 has pKi of 6.23

Per the record, COc1cccc(F)c1OC(c1cccnc1)[C@H]1CNCCO1 (mixture of isomers) [Example 31] has pKi of 7.07

Per the record, FC(F)(F)Oc1ccccc1O[C@@H](c1ccccc1)[C@@H]1CNCCO1 has pKi of 8.00

Per the record, COc1cccc([C@H](Oc2c(F)cccc2F)[C@@H]2CNCCO2)n1 has pKi of 8.10

Per the record, CC(Oc1ccccc1Oc1ccc(F)cc1)[C@@H]1CNCCO1 (stereo partly shown) has pKi of 8.40

Per the record, FCCOc1ccccc1O[C@@H](c1ccccc1)[C@@H]1CNCCO1 has pKi of 8.13

Per the record, Brc1ccccc1OC(c1ccccc1)[C@H]1CNCCO1 (stereo partly shown) has pKi of 7.77

Per the record, c1ccc([C@H](Oc2ccccc2C2CCCC2)[C@@H]2CNCCO2)cc1 has pKi of 7.92

Per the record, COc1cccc(F)c1O[C@@H](c1ccccn1)[C@@H]1CNCCO1 has pKi of 8.22

###

- MEASURED_TARGET: human seritonin transporter (Homo sapiens, UniProt P31645)
- Sequence (P31645 whole entry): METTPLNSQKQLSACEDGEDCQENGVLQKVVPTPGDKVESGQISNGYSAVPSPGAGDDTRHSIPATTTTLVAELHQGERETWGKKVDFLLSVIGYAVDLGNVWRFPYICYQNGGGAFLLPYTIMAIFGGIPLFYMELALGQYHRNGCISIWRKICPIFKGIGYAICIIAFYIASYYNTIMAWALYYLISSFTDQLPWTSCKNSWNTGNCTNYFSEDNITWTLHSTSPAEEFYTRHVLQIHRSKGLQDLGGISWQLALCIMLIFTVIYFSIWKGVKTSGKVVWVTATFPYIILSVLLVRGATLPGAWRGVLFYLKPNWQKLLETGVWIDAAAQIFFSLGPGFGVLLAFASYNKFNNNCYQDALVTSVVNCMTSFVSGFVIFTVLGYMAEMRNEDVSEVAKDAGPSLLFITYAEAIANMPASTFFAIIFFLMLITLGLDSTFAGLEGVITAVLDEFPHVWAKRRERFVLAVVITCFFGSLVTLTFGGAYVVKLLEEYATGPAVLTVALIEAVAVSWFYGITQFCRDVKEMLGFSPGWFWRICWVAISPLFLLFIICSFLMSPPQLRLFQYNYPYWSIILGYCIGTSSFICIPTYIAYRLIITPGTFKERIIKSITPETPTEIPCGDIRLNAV
METRIC: pKi
pKi here is simply -log10 of the concentration when that concentration is written in mol/L.

COMPOUND	OBSERVED_RESULT
FC(F)(F)Oc1ccccc1O[C@@H](c1ccccc1)[C@@H]1CNCCO1	5.40
Fc1ccc(Oc2ncccc2OC[C@@H]2CNCCO2)cc1F	5.02
C=Cc1ccccc1O[C@@H](c1ccccc1)[C@@H]1CNCCO1	5.93
CCOc1ccccc1OC(c1ccc(F)cc1)[C@H]1CNCCO1 (stereo partly drawn)	6.22
CC(Oc1ccccc1Oc1ccc(F)cc1)[C@@H]1CNCCO1 (stereo partly drawn)	5.48
CCOc1ccccc1O[C@@H](c1cc(CC)ccn1)[C@@H]1CNCCO1	5.34

Considering Fc1cc(F)c(O[C@@H](c2ccccc2)[C@@H]2CNCCO2)c(C2CC2)c1 , its pKi with human seritonin transporter (Homo sapiens, UniProt P31645) was recorded as 7.36

Considering c1ccc([C@H](Oc2cccnc2OCC2CC2)[C@@H]2CNCCO2)cc1 , its pKi with human seritonin transporter (Homo sapiens, UniProt P31645) was recorded as 5.73

Considering FCCCOc1ccccc1O[C@@H](c1ccccc1)[C@@H]1CNCCO1 , its pKi with human seritonin transporter (Homo sapiens, UniProt P31645) was recorded as 5.41

Considering COc1cccc(F)c1OC(c1ccccc1)[C@@H]1CNCCO1 (stereo partly drawn) , its pKi with human seritonin transporter (Homo sapiens, UniProt P31645) was recorded as 5.47

Considering Fc1cccc(F)c1O[C@H](C1=CCCC1)[C@@H]1CNCCO1 , its pKi with human seritonin transporter (Homo sapiens, UniProt P31645) was recorded as 5.60

These measurements were taken from patent US7659394B2.
